# PROTOCOL_NOTES: Compound A2 concentration in the CSF of rats
# Type: in vivo
# EXPERIMENTAL_CONDITIONS: rat, CSF, po, 10 mg/kg, PO, 24 h, individual animals, read-out: CSF Concentration
# Protocol: Compound A2 in the CSF of the rats was also analyzed. The results are shown in Table 4 below, wherein BQL stands for below the quantifiable limit of 2.0 ng/mL.
EXPERIMENTAL_ENDPOINT: concentration at 24 h (ng/mL)
Please state the figure in ng/mL; there is no need to write the unit.

Task item: # get_value(readout='concentration at 24 h', item= Cc1ccc(C(F)(F)F)cc1NS(=O)(=O)c1cccc(C(=O)O)c1 )
Reply: 2
